assay: Dose normalized bioavailability in cynomolgous monkey at 10 mg/kg, po and 2 mg/kg, iv; format: ADME, organism-based, Macaca fascicularis; details: cynomolgus monkey, in vivo, read-out: F/dose

{"Mol": "CCOc1cc(NC(=O)C2(NC(=O)c3ccc4c(C5CCCC5)c(-c5ncc(Cl)cn5)n(C)c4c3)CCC2)ccc1/C=C/C(=O)O", "bioavailability (%)": 72}

---

test: Half life in rhesus monkey liver microsomes at 2 uM
Assay Endpoint: half-life at 2 µM (min)

{"Mol": "CCOc1nc(NC(=O)C2(NC(=O)c3ccc4c(C5CCCC5)c(-c5ncc(Cl)cn5)n(C)c4c3)CCC2)ccc1/C=C/C(=O)O", "Assay Endpoint": "half-life at 2 µM", "Val": 32}

---

Recorded concentration at 1 h, one value per entry.
assay: Plasma concentration in rat at 4 mg/kg, po as cassette dosing measured at 1 hr post dose; format: ADME, organism-based; set-up: dose 4 mg/kg, route oral
Assay Endpoint: concentration at 1 h (nM)

{"Mol": "CCOc1nc(NC(=O)C2(NC(=O)c3ccc4c(C5CCCC5)c(-c5ncc(Cl)cn5)n(C)c4c3)CCC2)ncc1/C=C/C(=O)O", "Val": 100}
{"Mol": "CCOc1cc(NC(=O)C2(NC(=O)c3ccc4c(C5CCCC5)c(-c5ncc(Cl)cn5)n(C)c4c3)CCC2)cnc1/C=C/C(=O)O", "Val": 400}
{"Mol": "CCOc1nc(NC(=O)C2(NC(=O)c3ccc4c(C5CCCC5)c(-c5ncc(Cl)cn5)n(C)c4c3)CCC2)cnc1/C=C/C(=O)O", "Val": 2100}

---

experiment: AUC in rat at 5 mg/kg, po and 2 mg/kg, iv; type: ADME, organism-based; conditions: plasma

{"Mol": "CCOc1nc(NC(=O)C2(NC(=O)c3ccc4c(C5CCCC5)c(-c5ncc(Cl)cn5)n(C)c4c3)CCC2)ccc1/C=C/C(=O)O", "AUC (µM·h)": 17}
{"Mol": "CCOc1cc(NC(=O)C2(NC(=O)c3ccc4c(C5CCCC5)c(-c5ncc(Cl)cn5)n(C)c4c3)CCC2)ccc1/C=C/C(=O)O", "AUC (µM·h)": 9.6}

---

experiment: Half life in rat liver microsomes at 2 uM; type: ADME

{"Mol": "CCOc1nc(NC(=O)C2(NC(=O)c3ccc4c(C5CCCC5)c(-c5ncc(Cl)cn5)n(C)c4c3)CCC2)ccc1/C=C/C(=O)O", "half-life at 2 µM": "1.85 h"}
{"Mol": "CCOc1cc(NC(=O)C2(NC(=O)c3ccc4c(C5CCCC5)c(-c5ncc(Cl)cn5)n(C)c4c3)CCC2)nnc1/C=C/C(=O)O", "half-life at 2 µM": "3.78 h"}
{"Mol": "CCOc1nc(NC(=O)C2(NC(=O)c3ccc4c(C5CCCC5)c(-c5ncc(Cl)cn5)n(C)c4c3)CCC2)cnc1/C=C/C(=O)O", "half-life at 2 µM": "> 5 h"}
{"Mol": "CCOc1cc(NC(=O)C2(NC(=O)c3ccc4c(C5CCCC5)c(-c5ncc(Cl)cn5)n(C)c4c3)CCC2)cnc1/C=C/C(=O)O", "half-life at 2 µM": "2.38 h"}
{"Mol": "CCOc1cc(NC(=O)C2(NC(=O)c3ccc4c(C5CCCC5)c(-c5ncc(Cl)cn5)n(C)c4c3)CCC2)ncc1/C=C/C(=O)O", "half-life at 2 µM": "1.73 h"}
{"Mol": "CCOc1nc(NC(=O)C2(NC(=O)c3ccc4c(C5CCCC5)c(-c5ncc(Cl)cn5)n(C)c4c3)CCC2)ncc1/C=C/C(=O)O", "half-life at 2 µM": "> 5 h"}

---

Listing of recorded logD by entry.
assay: Lipophilicity, log D of the compound at pH 7.4; format: physicochemical; conditions: buffer

{"Mol": "CCOc1cc(NC(=O)C2(NC(=O)c3ccc4c(C5CCCC5)c(-c5ncc(Cl)cn5)n(C)c4c3)CCC2)nnc1/C=C/C(=O)O", "Result Comparator": "=", "logD": 3.4}
{"Mol": "CCOc1cc(NC(=O)C2(NC(=O)c3ccc4c(C5CCCC5)c(-c5ncc(Cl)cn5)n(C)c4c3)CCC2)cnc1/C=C/C(=O)O", "Result Comparator": "=", "logD": 3.9}
{"Mol": "CCOc1nc(NC(=O)C2(NC(=O)c3ccc4c(C5CCCC5)c(-c5ncc(Cl)cn5)n(C)c4c3)CCC2)ccc1/C=C/C(=O)O", "Result Comparator": ">", "logD": 5.9}
{"Mol": "CCOc1cc(NC(=O)C2(NC(=O)c3ccc4c(C5CCCC5)c(-c5ncc(Cl)cn5)n(C)c4c3)CCC2)ncc1/C=C/C(=O)O", "Result Comparator": "=", "logD": 3}

---

experiment: Cytotoxicity against human HuH7 cells assessed as reduction in cell viability by MTT assay; assay type: cell-based; conditions: Huh-7 cells, read-out: TC50 (the source's name)
Parameter: CC50. Scope: all listed entries.

{"Mol": "CCOc1cc(NC(=O)C2(NC(=O)c3ccc4c(C5CCCC5)c(-c5ncc(Cl)cn5)n(C)c4c3)CCC2)cnc1/C=C/C(=O)O", "CC50": "> 10 µM"}
{"Mol": "CCOc1nc(NC(=O)C2(NC(=O)c3ccc4c(C5CCCC5)c(-c5ncc(Cl)cn5)n(C)c4c3)CCC2)ccc1/C=C/C(=O)O", "CC50": "56 µM"}
{"Mol": "CCOc1nc(NC(=O)C2(NC(=O)c3ccc4c(C5CCCC5)c(-c5ncc(Cl)cn5)n(C)c4c3)CCC2)ncc1/C=C/C(=O)O", "CC50": "> 10 µM"}
{"Mol": "CCOc1cc(NC(=O)C2(NC(=O)c3ccc4c(C5CCCC5)c(-c5ncc(Cl)cn5)n(C)c4c3)CCC2)nnc1/C=C/C(=O)O", "CC50": "> 10 µM"}
{"Mol": "CCOc1nc(NC(=O)C2(NC(=O)c3ccc4c(C5CCCC5)c(-c5ncc(Cl)cn5)n(C)c4c3)CCC2)cnc1/C=C/C(=O)O", "CC50": "> 10 µM"}
{"Mol": "CCOc1cc(NC(=O)C2(NC(=O)c3ccc4c(C5CCCC5)c(-c5ncc(Cl)cn5)n(C)c4c3)CCC2)ncc1/C=C/C(=O)O", "CC50": "> 10 µM"}
